Target: human DAT (Homo sapiens, UniProt Q01959)
Sequence (Q01959 whole entry): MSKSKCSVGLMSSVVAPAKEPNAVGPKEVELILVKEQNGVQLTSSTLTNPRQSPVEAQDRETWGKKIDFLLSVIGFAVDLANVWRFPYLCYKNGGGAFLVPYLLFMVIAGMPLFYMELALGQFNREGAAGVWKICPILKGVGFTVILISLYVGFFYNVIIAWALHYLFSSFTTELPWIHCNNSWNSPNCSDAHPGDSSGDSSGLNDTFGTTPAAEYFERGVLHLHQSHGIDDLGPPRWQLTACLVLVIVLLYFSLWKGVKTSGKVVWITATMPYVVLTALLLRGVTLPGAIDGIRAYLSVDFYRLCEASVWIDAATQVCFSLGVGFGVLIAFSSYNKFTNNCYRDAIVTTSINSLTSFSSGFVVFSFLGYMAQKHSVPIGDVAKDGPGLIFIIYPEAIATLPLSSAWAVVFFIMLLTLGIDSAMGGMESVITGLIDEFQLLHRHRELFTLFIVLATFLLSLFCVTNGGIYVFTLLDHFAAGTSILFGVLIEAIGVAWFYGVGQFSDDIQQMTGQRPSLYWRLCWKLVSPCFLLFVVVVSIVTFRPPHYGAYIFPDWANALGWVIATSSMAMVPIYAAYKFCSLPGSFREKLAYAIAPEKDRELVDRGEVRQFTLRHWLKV
Test: Neurotransmitter transporter uptake assay, DAT
Conditions: read-out: Ki against DAT; cell-based functional assay
EXPERIMENTAL ENDPOINT: pKi
The meaning of pKi here: minus log10 of the concentration in molar units.

Item under review: Fc1ccc(-c2csc(N3CCNCC3)n2)cc1 . Reported pKi?
5.18

---

Molecular target: SERT (Rattus norvegicus)
EXPERIMENTAL ENDPOINT: Ki (µM)
Write the answer as a number in µM, unit excluded.

Item under review: Fc1ccc(-c2csc(N3CCNCC3)n2)cc1 . Reported Ki?
0.014

---

Target: SERT (Rattus norvegicus, UniProt P31652)
Sequence (P31652 whole entry): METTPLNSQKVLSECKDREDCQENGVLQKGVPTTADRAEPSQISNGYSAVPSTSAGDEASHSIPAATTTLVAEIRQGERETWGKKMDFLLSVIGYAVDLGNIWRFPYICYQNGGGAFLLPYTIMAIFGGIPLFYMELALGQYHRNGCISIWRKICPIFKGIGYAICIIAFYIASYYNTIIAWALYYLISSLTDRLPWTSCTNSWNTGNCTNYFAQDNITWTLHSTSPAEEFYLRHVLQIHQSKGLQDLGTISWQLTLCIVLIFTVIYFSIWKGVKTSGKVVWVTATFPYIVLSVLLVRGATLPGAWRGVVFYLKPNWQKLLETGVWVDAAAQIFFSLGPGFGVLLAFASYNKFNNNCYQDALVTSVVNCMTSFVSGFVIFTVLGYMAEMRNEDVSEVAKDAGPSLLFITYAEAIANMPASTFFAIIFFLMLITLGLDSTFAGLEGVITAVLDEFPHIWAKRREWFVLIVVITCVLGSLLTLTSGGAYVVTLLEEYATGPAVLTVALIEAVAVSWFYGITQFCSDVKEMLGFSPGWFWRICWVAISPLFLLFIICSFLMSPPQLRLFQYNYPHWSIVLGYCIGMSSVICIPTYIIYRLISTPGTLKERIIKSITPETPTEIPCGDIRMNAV
EXPERIMENTAL ENDPOINT: Kd (nM)
Write the answer as a number in nM, unit excluded.

Item under review: Fc1ccc(-c2csc(N3CCNCC3)n2)cc1 . Reported Kd?
15
